- System: Botrytis cinerea
- Method notes: In vivo test Botrytis cinerea (gray mold on cucumbers)
- Recorded conditions: Botrytis cinerea on cucumber, application rate 500 g/ha, evaluation 5-7 days after infection
Please assign label 0 whenever Activity [%] (efficacy) is at or above 90%, and label 1 whenever it is below.

Task: Strictly below 90%: is that where Activity [%] (efficacy) of CC1(C(=O)Nc2ccc(C(=O)O)cc2)CC(c2cc(Cl)cc(Cl)c2)=NO1 (stereo not drawn) [Example 1.064] sits?
Output: label 0

Task: Strictly below 90%: is that where Activity [%] (efficacy) of CC(C)NC(=O)C1(C)CC(c2cc(Cl)cc(Cl)c2)=NO1 (stereo not drawn) [Example 6.165] sits?
Output: label 0

Task: Strictly below 90%: is that where Activity [%] (efficacy) of CCn1cc(CNC(=O)C2(C)CC(c3cc(C)cc(Cl)c3)=NO2)c(C)n1 (stereo not drawn) [Example 1.181] sits?
Output: label 1

Task: Strictly below 90%: is that where Activity [%] (efficacy) of CC(C)NC(=O)C1(C)CC(c2cc(Cl)cc(C(F)(F)F)c2)=NO1 (stereo not drawn) [Example 6.188] sits?
Output: label 1

Task: Strictly below 90%: is that where Activity [%] (efficacy) of COC(=O)c1ccc(NC(=O)C2(C)CC(c3cc(Cl)cc(Cl)c3)=NO2)cc1 (stereo not drawn) [Example 1.060] sits?
Output: label 0

Cited source: patent US9078442B2
